This collection of values is drawn from paper PMC9352680.

Target: T1, PUF4 RNA-binding domain (Saccharomyces cerevisiae, UniProt P25339 537-888)
T1 sequence: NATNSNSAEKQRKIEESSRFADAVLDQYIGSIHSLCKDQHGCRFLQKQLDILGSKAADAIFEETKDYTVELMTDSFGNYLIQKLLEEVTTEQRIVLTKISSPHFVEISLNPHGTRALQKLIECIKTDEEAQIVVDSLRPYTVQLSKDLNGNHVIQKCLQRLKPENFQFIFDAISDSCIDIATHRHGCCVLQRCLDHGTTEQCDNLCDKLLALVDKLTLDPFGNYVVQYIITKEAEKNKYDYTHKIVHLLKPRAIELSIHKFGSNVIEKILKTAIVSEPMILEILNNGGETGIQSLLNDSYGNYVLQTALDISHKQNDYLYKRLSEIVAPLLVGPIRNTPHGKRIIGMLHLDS
Assay: Mg; RNA-MaP; 20 mM Na-HEPES pH 7.4, 30 mM KOAc, 0.75 mM MgCl2, 0.1% Tween-20, 5% glycerol, 0.1 mg/mL BSA, 2 mM DTT; 25 C; 0.0125-409.6 nM protein
Conditions: tags: N-His6-TEV cleaved; C-SNAP kept, Cy3B-labelled; label: tethered on chip by stalled RNA polymerase
Kd: recorded values
Answer format: numeric, nM implied, no suffix.

Example entries and their recorded answers appear below.
- binder: "Id_ii_S2_P4E.4_K4.3_C4.2_H4.3_A4.1_F4.1_T4.2_[G10C]_[T11A] (ssRNA) RNA: UUUGAUUAAUAUGAUAUCGUUCUUUCUCUACACUAUUACAUUCUUUCUCGAUAUCAUAUUAAUCUUU"
  Kd (nM): 471
- binder: "Ib_S4_P5E.1_K5.1_C5.1_H5.1_A5.1_[A7T]_F5.1_[A10G]_T5.1 (ssRNA) RNA: UUUGACAACUGAUCGUUCUUUCUUGUAUUUUUGUUCUUUCUCGAUCAGUUGUCUUU"
  Kd (nM): 9.13
- binder: "Ib_S2_P4E.1_K4.1_C4.1_H4.1_[G2C]_A4.1_[T7C]_F4.1_T4.1 (ssRNA) RNA: UUUGAUUAAUAUGAUAUCGUUCUUUCUUCUAUACUAUUCUUUCUCGAUAUCAUAUUAAUCUUU"
  Kd (nM): 190
- binder: "Id_ii_S2_P5E.3_K5.2_C5.2_H5.2_A5.1_F5.1_T5.2_[T11C]_[A12G] (ssRNA) RNA: UUUGAUUAAUAUGAUAUCGUUCUUUCUCUUAUAUUAUUACGUUCUUUCUCGAUAUCAUAUUAAUCUUU"
  Kd (nM): 426
- binder: "Ib_S2_P5E.1_K5.1_C5.1_H5.1_[A4C]_A5.1_[A7C]_F5.1_T5.1 (ssRNA) RNA: UUUGAUUAAUAUGAUAUCGUUCUUUCUUGUCUUCUUAUUCUUUCUCGAUAUCAUAUUAAUCUUU"
  Kd (nM): 94.3

Q: Which Kd reading was recorded for the binder UCUCUUAAUAUAUAUAAAUCUCUU (ssRNA) [Id_ii_S1_P3E.3_K3.2_C3.2_[C-2A]_[T-1A]_H3.2_A3.1_F3.1_T3.2_[T9A]] ?
Result: 1290

Q: Which Kd reading was recorded for the binder Ie_S4_P5E.1_K5.1_C5.1_H5.1_A5.1_[+5TTT]_F5.1_T5.1 (ssRNA) RNA: UUUGACAACUGAUCGUUCUUUCUUGUAUUUUUAUUAUUCUUUCUCGAUCAGUUGUCUUU ?
Result: 2.85
